Data origin: ChEMBL document CHEMBL1909544

# assay comment: Oral bioavailability in Sprague-Dawley rat at 3 mg/kg
# Type: ADME, organism-based
# run conditions: in vivo
quantity name: bioavailability (%)

- COCCCc1cc(CN(C(=O)C2CNCCC2(O)c2ccc(F)c(F)c2)C2CC2)cc(OCCOC)c1 (single isomer, unassigned): 29
- O=C([C@H]1CNCC[C@]1(O)c1ccc(F)c(F)c1)N(Cc1cn(Cc2cccc(F)c2)c2cccc(F)c12)C1CC1 (racemic): 37

###

# assay comment: Half life in Sprague-Dawley rat at 5 mg/kg, iv
# Assay type: ADME, organism-based
# Parameters: dose 5 mg/kg, route intravenous
# run conditions: in vivo
quantity name: half-life (h)

• COCCCc1cc(CN(C(=O)C2CNCCC2(O)c2ccc(F)c(F)c2)C2CC2)cc(OCCOC)c1 (single isomer, unassigned) = 1.5

###

# assay comment: Oral bioavailability in Sprague-Dawley rat at 30 mg/kg
# Type: ADME, organism-based
# run conditions: in vivo
quantity name: bioavailability (%)

• COCCCc1cc(CN(C(=O)C2CNCCC2(O)c2ccc(F)c(F)c2)C2CC2)cc(OCCOC)c1 (single isomer, unassigned) = 18

###

Reported clearance values for the following compounds.
# assay comment: Clearance in Sprague-Dawley rat at 3 mg/kg, po and 5 mg/kg, iv
# Assay type: ADME, organism-based
# run conditions: in vivo
quantity name: clearance (mL/min/kg)

• O=C([C@H]1CNCC[C@]1(O)c1ccc(F)c(F)c1)N(Cc1cn(Cc2cccc(F)c2)c2cccc(F)c12)C1CC1 (racemic) = 93
• O=C([C@H]1CNCC[C@]1(OCC(O)CO)c1ccc(F)c(F)c1)N(Cc1cn(Cc2cccc(F)c2)c2cccc(F)c12)C1CC1 (mixture of isomers) = 16

###

# assay comment: Oral bioavailability in Sprague-Dawley rat at 0.3 mg/kg
# Assay type: ADME, organism-based
# run conditions: in vivo
quantity name: bioavailability (%)

* COCCCc1cc(CN(C(=O)C2CNCCC2(O)c2ccc(F)c(F)c2)C2CC2)cc(OCCOC)c1 (single isomer, unassigned) | 17

###

# assay comment: Clearance in Sprague-Dawley rat at 5 mg/kg, iv
# Type: ADME, organism-based
# Set-up: dose 5 mg/kg, route intravenous
# run conditions: in vivo
quantity name: clearance (L/h/kg)

• COCCCc1cc(CN(C(=O)C2CNCCC2(O)c2ccc(F)c(F)c2)C2CC2)cc(OCCOC)c1 (single isomer, unassigned) = 2.16

###

# assay comment: Half life in Sprague-Dawley rat at 3 mg/kg, po and 5 mg/kg, iv
# Assay type: ADME, organism-based
# run conditions: in vivo
Reported half-life values for the following compounds.
quantity name: half-life (h)

* O=C([C@H]1CNCC[C@]1(OCC(O)CO)c1ccc(F)c(F)c1)N(Cc1cn(Cc2cccc(F)c2)c2cccc(F)c12)C1CC1 (mixture of isomers) | 2.6
* O=C([C@H]1CNCC[C@]1(O)c1ccc(F)c(F)c1)N(Cc1cn(Cc2cccc(F)c2)c2cccc(F)c12)C1CC1 (racemic) | 9.4
